Property: EC50; scope: individual compounds
Molecular target: Endoribonuclease toxin MazF (Escherichia coli K-12)
Sequence (P0AE70 whole entry): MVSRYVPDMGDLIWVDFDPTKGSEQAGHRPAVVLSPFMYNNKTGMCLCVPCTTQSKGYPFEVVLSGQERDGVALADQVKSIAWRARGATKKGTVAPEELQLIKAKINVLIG
Test: fluorescent RNA oligo signal without MazF, dose response, counter-screen for MazEF activator project, biochemical, fluorescence, single-stranded RNase substrate (AID 588502)
Type: functional
Calls of active or inactive are those of the source.

O=C1C(=Cc2cccn2-c2ccccc2)C(=O)c2ccccc21
60.7 µM (inactive)
COC(=O)/C=C1\C(=O)N(c2nc3ccccc3s2)C(=S)N1c1ccc(F)cc1
> 99 µM (inactive)
CCN(CC)c1ccc2cc(-c3nnc(-c4ccccc4)o3)c(=O)oc2c1
> 99 µM (inactive)

Kindly note: Endoribonuclease toxin MazF (Escherichia coli K-12), "COC(=O)C1=C(C)N(C)C(C)=C(C(=O)OC)C1c1ccccn1" , EC50 value reported: 56.4 µM (inactive)

----------
Property: EC50; scope: individual compounds
Molecular target: Voltage-dependent T-type calcium channel subunit alpha-1H (Homo sapiens, UniProt O95180);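 further: channel activity triggered by adding a high calcium stimulation buffer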
Sequence (O95180 whole entry): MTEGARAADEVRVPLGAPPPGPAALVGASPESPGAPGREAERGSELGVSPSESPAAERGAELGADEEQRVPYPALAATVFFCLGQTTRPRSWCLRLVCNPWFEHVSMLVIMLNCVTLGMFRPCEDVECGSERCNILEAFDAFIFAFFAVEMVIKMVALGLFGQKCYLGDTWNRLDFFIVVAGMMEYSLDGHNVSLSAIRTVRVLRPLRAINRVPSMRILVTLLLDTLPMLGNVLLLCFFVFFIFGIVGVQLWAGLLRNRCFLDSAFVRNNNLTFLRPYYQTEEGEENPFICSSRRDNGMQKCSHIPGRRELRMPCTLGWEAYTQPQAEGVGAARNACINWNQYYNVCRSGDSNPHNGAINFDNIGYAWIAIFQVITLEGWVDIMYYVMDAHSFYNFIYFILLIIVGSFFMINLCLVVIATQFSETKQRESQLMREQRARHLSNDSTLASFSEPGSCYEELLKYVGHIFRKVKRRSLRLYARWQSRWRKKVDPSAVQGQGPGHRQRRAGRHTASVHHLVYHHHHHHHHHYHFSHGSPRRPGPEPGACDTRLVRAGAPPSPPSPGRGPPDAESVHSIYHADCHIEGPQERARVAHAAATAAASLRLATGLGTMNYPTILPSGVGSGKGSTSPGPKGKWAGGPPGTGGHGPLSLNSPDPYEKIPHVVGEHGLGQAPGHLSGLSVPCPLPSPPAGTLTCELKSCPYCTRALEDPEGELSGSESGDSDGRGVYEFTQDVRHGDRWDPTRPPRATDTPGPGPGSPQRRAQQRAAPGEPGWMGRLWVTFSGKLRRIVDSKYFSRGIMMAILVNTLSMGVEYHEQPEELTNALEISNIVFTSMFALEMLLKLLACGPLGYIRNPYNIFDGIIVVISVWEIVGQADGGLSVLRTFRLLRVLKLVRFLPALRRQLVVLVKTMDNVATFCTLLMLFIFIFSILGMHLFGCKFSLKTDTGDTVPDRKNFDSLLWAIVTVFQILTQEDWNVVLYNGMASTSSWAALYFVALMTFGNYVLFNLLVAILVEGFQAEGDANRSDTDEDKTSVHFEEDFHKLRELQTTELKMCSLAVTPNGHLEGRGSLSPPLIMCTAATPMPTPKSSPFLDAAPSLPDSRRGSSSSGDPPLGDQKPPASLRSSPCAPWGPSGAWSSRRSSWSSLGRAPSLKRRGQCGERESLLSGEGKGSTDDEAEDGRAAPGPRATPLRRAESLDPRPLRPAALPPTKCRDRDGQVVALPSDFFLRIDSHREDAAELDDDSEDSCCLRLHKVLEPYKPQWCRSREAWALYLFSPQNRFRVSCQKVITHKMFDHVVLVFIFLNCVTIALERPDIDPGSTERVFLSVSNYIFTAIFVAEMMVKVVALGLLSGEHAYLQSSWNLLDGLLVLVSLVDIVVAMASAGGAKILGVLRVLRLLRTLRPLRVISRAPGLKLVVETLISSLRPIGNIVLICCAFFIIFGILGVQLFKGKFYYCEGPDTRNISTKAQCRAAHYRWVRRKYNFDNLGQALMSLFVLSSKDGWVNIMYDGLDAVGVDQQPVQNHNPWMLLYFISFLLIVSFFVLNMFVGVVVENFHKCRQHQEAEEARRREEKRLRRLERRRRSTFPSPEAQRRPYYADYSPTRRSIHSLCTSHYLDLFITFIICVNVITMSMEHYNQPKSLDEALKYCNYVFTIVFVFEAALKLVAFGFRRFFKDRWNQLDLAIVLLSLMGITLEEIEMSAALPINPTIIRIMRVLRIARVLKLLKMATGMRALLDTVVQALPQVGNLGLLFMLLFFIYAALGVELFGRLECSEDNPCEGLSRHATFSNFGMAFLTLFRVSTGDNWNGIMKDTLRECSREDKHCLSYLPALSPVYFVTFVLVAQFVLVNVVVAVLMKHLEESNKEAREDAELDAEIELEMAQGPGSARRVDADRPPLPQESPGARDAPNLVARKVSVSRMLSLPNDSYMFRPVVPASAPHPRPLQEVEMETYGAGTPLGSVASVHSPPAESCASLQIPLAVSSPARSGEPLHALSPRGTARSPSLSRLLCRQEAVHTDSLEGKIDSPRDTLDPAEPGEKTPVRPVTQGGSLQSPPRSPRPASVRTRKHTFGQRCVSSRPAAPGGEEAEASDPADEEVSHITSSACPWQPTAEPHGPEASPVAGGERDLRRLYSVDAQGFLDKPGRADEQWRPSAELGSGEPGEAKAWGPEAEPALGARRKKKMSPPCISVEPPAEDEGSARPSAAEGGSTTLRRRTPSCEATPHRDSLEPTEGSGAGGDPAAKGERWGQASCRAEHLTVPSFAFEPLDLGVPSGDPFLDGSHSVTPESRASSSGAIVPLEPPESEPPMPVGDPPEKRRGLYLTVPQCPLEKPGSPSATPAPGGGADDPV
Type: functional
Activity calls are given as the source filed them.

Some solved cases for reference:
COc1ccccc1N1CCN(C(c2ccccc2Cl)c2nnnn2C(C)(C)C)CC1 (stereo not drawn)
11.7 µM (active)
CCC(c1nnnn1C(C)(C)C)N1CCN(c2cc(Cl)ccc2C)CC1 (stereo not drawn)
5.94 µM (active)
COc1ccccc1N1CCN(CC(=O)c2c(C)[nH]c3cc(C)ccc23)CC1
5.63 µM (active)
CCC(C)(C)n1nnnc1C(c1ccc(C)cc1)N(Cc1ccco1)Cc1cccs1 (stereo not drawn)
6.74 µM (active)
O=C(CSc1nc2ccccc2o1)Nc1ccccc1N1CCCCCC1
8.41 µM (active)

For this compound ( Cc1ccc(C(c2nnnn2C(C)(C)C)N(Cc2ccco2)Cc2cccs2)cc1 (stereo not drawn) ), measured EC50 is 6.33 µM (active)

For this compound ( "CCN(CC)c1ccc2cc(-c3nnc(-c4ccccc4)o3)c(=O)oc2c1" ), measured EC50 is 0.931 µM (active)

For this compound ( "Cc1ccc(-c2nnc(CSc3nnc(COc4ccccc4)n3-c3ccccc3)o2)cc1" ), measured EC50 is 3.32 µM (active)

----------
# AC50 measurements, system: Cytochrome P450 2C9 (Homo sapiens, UniProt P11712)
# Sequence (P11712 whole entry): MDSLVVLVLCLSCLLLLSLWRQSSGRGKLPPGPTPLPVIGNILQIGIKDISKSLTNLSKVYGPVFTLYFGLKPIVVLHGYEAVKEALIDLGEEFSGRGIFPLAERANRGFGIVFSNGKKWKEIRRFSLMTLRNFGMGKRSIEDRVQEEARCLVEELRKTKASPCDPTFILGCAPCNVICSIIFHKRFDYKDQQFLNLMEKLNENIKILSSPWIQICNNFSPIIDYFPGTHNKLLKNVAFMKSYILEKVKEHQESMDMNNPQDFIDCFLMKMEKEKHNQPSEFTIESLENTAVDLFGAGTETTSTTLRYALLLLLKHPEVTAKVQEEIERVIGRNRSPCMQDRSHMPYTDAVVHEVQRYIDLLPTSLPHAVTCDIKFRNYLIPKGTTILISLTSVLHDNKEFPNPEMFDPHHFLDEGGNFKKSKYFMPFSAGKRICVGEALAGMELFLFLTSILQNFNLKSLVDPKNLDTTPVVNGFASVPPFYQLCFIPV

Kindly note: Cytochrome P450 2C9 (Homo sapiens, UniProt P11712), "Cc1nc2cncnc2n(Cc2ccc(F)cc2)c1=O" , AC50 value reported: 25.1 µM (inconclusive)

Kindly note: Cytochrome P450 2C9 (Homo sapiens, UniProt P11712), O=C1c2ccccc2NC(c2ccc3c(c2)OCO3)N1O (configuration not stated) , AC50 value reported: 14.1 µM (inconclusive)

Kindly note: Cytochrome P450 2C9 (Homo sapiens, UniProt P11712), "Cc1ccccc1OCCN=C(S)Nc1ccccc1" , AC50 value reported: 10 µM (inconclusive)

Kindly note: Cytochrome P450 2C9 (Homo sapiens, UniProt P11712), "CCOC(=O)c1sc(=S)n(-c2cccc(C(F)(F)F)c2)c1SC" , AC50 value reported: 1.58 µM (inconclusive)

Kindly note: Cytochrome P450 2C9 (Homo sapiens, UniProt P11712), "O=S(=O)(Nc1cccnc1Cl)c1ccc2c(c1)OCCO2" , AC50 value reported: 15.8 µM (inconclusive)

Kindly note: Cytochrome P450 2C9 (Homo sapiens, UniProt P11712), "COc1ccc(C(=O)N2CCC3(CC2)CCN(C(c2ccccc2)c2ccccc2)CC3)cc1" , AC50 value reported: 39.8 µM (inconclusive)

Kindly note: Cytochrome P450 2C9 (Homo sapiens, UniProt P11712), COc1nccc(-c2c(-c3ccc(F)cc3)ncn2C2CCC(O)CC2)n1 (configuration not stated) , AC50 value reported: 7.94 µM (inconclusive)

Kindly note: Cytochrome P450 2C9 (Homo sapiens, UniProt P11712), "O=C(c1csnn1)N1CCC2(CC1)CN(C(c1ccccc1)c1ccccc1)C2" , AC50 value reported: 15.8 µM (inconclusive)

Kindly note: Cytochrome P450 2C9 (Homo sapiens, UniProt P11712), "CCCC(CCC)C(=O)NNc1cc(O)c2c(=O)n(C)c(=O)n(C)c2n1" , AC50 value reported: 0.178 µM (inconclusive)

Kindly note: Cytochrome P450 2C9 (Homo sapiens, UniProt P11712), "OCCN1CCN(c2nc(N3CCCCC3)nc(N3CCCCC3)n2)CC1" , AC50 value reported: 15.8 µM (inconclusive)

Kindly note: Cytochrome P450 2C9 (Homo sapiens, UniProt P11712), "O=C(O)c1ccc(/C=N\N=C2c3ccccc3-c3ccccc32)cc1" , AC50 value reported: 7.94 µM (inconclusive)

Kindly note: Cytochrome P450 2C9 (Homo sapiens, UniProt P11712), "Cc1cc(NCc2ccccn2)ccc1Br" , AC50 value reported: 7.08 µM (inconclusive)

----------
Biological target: RNA-binding protein pos-1 (Caenorhabditis elegans)
Sequence (G5EF15 whole entry, the tested form may be a part): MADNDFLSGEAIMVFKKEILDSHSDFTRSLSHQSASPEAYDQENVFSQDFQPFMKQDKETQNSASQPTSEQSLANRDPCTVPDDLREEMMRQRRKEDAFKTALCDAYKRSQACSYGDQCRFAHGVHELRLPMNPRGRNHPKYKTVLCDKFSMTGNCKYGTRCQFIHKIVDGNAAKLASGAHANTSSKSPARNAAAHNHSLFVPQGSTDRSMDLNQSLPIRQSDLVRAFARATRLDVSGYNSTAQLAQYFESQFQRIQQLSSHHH
Experiment: inhibitors of POS-1/mex-3 RNA binding, dose response, biochemical, fluorescence polarization (AID 1964);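 further: purified POS-1 fused to maltose binding protein made in E. coli; potency of compounds blocking POS-1 binding to fluorescent RNA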
Calls of active or inactive are those of the source.
readout.name: EC50

Some solved cases for reference:
O=C(O)c1cc(Cl)c2c(c1)[C@@H]1C=CC[C@@H]1[C@H](c1ccc(S(=O)(=O)N3CCOCC3)cc1)N2
> 300 µM (not active)
O=C(O)c1cc(-c2ccc(/C=N/Nc3ccc([N+](=O)[O-])cn3)o2)ccc1Cl
31 µM (active)
Cc1ccc2[nH]c(C)c(/C=C3/C(=N)N4N=C(CC(=O)N5CCOCC5)SC4=NC3=O)c2c1
38.3 µM (active)
O=C1C(=Cc2cccn2-c2ccccc2)C(=O)c2ccccc21
68.6 µM (active)
Cc1ccc(S(=O)(=O)c2cc3c(=O)n4ccccc4nc3n(CCc3ccccc3)c2=N)cc1
111 µM (inconclusive)

For this compound ( "COc1ccc(-c2nnc(Nc3nc4c(OC)cccc4s3)o2)c(OC)c1" ), measured EC50 is > 300 µM (not active)

For this compound ( "Cc1ccc2nc(-c3ccc(O)c(O)c3)cn2c1" ), measured EC50 is > 75 µM (not active)

----------
Property: EC50; scope: individual compounds
Test: Luminescence Cell-Based Dose Response HTS to Identify Inhibitors of 5'UTR Stem-Loop Driven Prion Protein mRNA Translation in H4 Neuroglioblastoma Cells. [Related pubchem assays: 1827 (Project Summary), 1813 (Primary HTS)]
Type: functional

For this compound ( COC(=O)C1=C(C)n2nnnc2NC1c1ccc(Cl)cc1 (centres undefined) ), measured EC50 is > 120 µM (not active)

----------
Molecular target: UniProt:Q14790
Assay: caspase-8 inhibition counter-screen, dose response, selectivity assay for caspase-6 inhibitor project, biochemical, Z-IETD-R110 fluorescence, cherry-picked samples (AID 743294)
Activity calls are given as the source filed them.
Please answer using one outcome listed in active, inactive

// below: answered molecules
O=c1ccc2c(-c3ccccc3S(=O)(=O)O)c3ccc(O)c(O)c3oc-2c1O
inactive
Cc1c(CCC(=O)O)c(=O)oc2c(C)c(OCc3ccccc3Cl)ccc12
inactive
O=C(O)C1CCCCC1C(=O)Nc1cccc(Br)c1 (centres undefined)
active

From here, focus on the item given below.
## Task Would you mind telling me which call this test gave "COc1ccccc1NC(=O)COC(=O)c1ccc([N+](=O)[O-])s1" ?
## Result active

----------
Property: CC50; scope: individual molecules
Experiment: THP-1 cell cytotoxicity, dose response, cytotoxicity control for non-replicating M. tuberculosis project (AID 489025)
Format: functional
Active and inactive are the calls of the source.

Some solved cases for reference:
Cc1cccc(-c2nnc3sc(-c4ccccc4C)nn23)c1
39 µM (active)
Cc1ccc(NC(=O)COc2ccc(-n3ccnc3)cc2)cc1Cl
> 40 µM (active)
Cc1ccn2c(Nc3ccccc3)c(-c3ccccn3)nc2c1
6.44 µM (active)

Shift focus to the following entry.
For this molecule ( "COc1cc(OC)cc(C(=O)NNC(=O)c2ccccn2)c1" ), measured CC50 is 10.6 µM (active)

----------
Biological target: Zinc finger protein mex-5 (Caenorhabditis elegans)
Sequence (Q9XUB2 whole entry): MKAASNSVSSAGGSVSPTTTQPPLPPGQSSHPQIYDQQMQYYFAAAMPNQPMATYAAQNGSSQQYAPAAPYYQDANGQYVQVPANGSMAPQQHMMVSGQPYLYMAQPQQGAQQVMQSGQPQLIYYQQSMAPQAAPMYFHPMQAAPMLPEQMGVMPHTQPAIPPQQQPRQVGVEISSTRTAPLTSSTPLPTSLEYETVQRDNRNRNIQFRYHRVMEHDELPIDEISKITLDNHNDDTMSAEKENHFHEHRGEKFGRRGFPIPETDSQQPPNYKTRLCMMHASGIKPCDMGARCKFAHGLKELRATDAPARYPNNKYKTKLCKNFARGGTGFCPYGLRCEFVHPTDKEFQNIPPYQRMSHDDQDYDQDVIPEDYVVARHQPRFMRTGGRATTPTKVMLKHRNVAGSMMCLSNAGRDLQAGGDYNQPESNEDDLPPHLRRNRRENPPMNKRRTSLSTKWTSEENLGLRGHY
Experiment: MEX-5/TCR-2 RNA interaction inhibitors, dose response, biochemical, C. elegans, fluorescence polarization (AID 1960)
Activity calls are given as the source filed them.
readout.name: EC50

Some solved cases for reference:
Cc1ccc2nc(-c3ccc(O)c(O)c3)cn2c1
9.7 µM (active)
CC1C(=O)NN=C1C(=O)N/N=C/c1ccco1 (stereo unspecified)
> 300 µM (not active)
CCn1c2ccccc2c(=O)c2ccccc21
> 300 µM (not active)
CC1(CCl)[N+]([O-])=C2CCCCC2=[N+]1[O-]
121 µM (active)
COC(=O)/C=C1\C(=O)N(c2nc3ccccc3s2)C(=S)N1c1ccc(F)cc1
> 300 µM (not active)

Kindly note: Zinc finger protein mex-5 (Caenorhabditis elegans), "O=C(Cc1ccccc1)NNC(=O)c1cnccn1" , EC50 value reported: 41.4 µM (active)

Kindly note: Zinc finger protein mex-5 (Caenorhabditis elegans), CSCC(C)N1CCC(N2CCC(C(=O)NCc3ccccn3)CC2)CC1 (stereo unspecified) , EC50 value reported: > 300 µM (not active)
